- test: Acute toxicity by oral route in mice
- reported.conditions: mouse, in vivo, per os, male CD1 mice, 14 days observation
outcome.measure: LD50 at 336 h

These solved cases illustrate the format of a correct answer.
CC(C)N(CCC(CO)c1cccc2ccccc12)Cc1ccccc1 (stereo not drawn) | 500 to 750 mg/kg
OCC(CCN1CCCCC1)c1cccc2ccccc12 (stereo not drawn) | 300 to 400 mg/kg

Then this molecule:
Return the recorded LD50 at 336 h value; entry: CC(C)N(CCC(CO)c1cccc2ccccc12)C(C)C (stereo not drawn)
300 to 400 mg/kg

---

- System: Escherichia Coli CNCM 54125
- test: Bactericidal activity (MBC), strain 1
- Assay type: cell-based
- reported.conditions: 20 min, strain 1, 20 minutes of contact, read-out: Minimum bactericidal concentration (MBC)
Label YES when MBC is strictly below 300 µg/mL; at or above that, label NO.

The following compounds have reported results that may help.
OCC(CCN1CCCCCC1)c1cccc2ccccc12 (stereo not drawn) [SR 43 155 A] | NO
OCC(CCN1CCC(Cc2ccccc2)CC1)c1ccccc1 (stereo not drawn) [SR 43 705 A] | NO
Cl.OCC(CCCCCCN1CCCCC1)c1cccc2ccccc12 (stereo not drawn) [SR 43 157 A] | YES
OCC(CCN1CCC(Cc2ccccc2)CC1)c1ccc(-c2ccccc2)cc1 (stereo not drawn) [SR 44 029 A] | YES
CN(C)CCCC(CO)c1cccc2ccccc12 (stereo not drawn) [SR 42 994 A] | NO
Cc1cccc(C(CO)CCN2CCC(Cc3ccccc3)CC2)c1 (stereo not drawn) [SR 44 226 A] | NO

Dear colleague, could you confirm whether MBC of OCC(CCCN1CCN(c2ccccc2)CC1)c1ccccc1 (stereo not drawn) [SR 43 970 A, reference compound] falls below 300 µg/mL? Thanks.
NO

# TODO verify MBC < 300 µg/mL strictly for this compound: CCN(CC)CCCCCCC(CO)c1cccc2ccccc12 (stereo not drawn) [SR 43 940 A]
YES
